Biological target: human somatostatin receptor subtype SSTR1 (human) (UniProt P30872)
Sequence (P30872 whole entry): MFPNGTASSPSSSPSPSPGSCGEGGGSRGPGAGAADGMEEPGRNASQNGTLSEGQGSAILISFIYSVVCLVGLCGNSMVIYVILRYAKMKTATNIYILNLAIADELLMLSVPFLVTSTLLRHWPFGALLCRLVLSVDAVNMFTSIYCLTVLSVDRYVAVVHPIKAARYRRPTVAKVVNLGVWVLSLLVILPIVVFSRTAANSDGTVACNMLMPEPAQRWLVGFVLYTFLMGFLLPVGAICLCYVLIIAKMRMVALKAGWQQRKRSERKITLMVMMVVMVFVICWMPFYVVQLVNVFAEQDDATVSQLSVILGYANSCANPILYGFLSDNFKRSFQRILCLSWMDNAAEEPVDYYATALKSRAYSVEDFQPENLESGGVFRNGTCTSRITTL
Assay: FACS, transfected HEK-293 cells
*1 amine or outer side, *2 acyl side, *3 side chain or, on linkers, in order; H or OH if unused. Bridges are numbered along the chain shown (N, C = ends). Primed or numbered codes have the meaning given here. [ ]: non-standard residue; d: D form. N(2-mercaptoethyl)Gly = O=C(CN(CCS[*:3])[*:1])[*:2]; FITC′ = fluorescein isothiocyanate; Aib = CC(C)(N)C(=O)O; GABA = NCCCC(=O)O
observed.property: Relative binding affinity (%)
Numeric answer only, unit % assumed.

INSERT INTO results (binder, observed_property, observed) VALUES
  ('{FITC′-GABA}-[dF]CFW[dW][Aib]TF[N(2-mercaptoethyl)Gly]-NH2 (disulfide 2-9) [Compound 13]', 'Relative binding affinity', 1),
  ('{FITC′-GABA}-[dF]CYW[dW]KTF[N(2-mercaptoethyl)Gly]-NH2 (disulfide 2-9) [Compound 4]', 'Relative binding affinity', 3.6),
  ('{FITC′-GABA}-[dF]CFW[dW]RTF[N(2-mercaptoethyl)Gly]-NH2 (disulfide 2-9) [Compound 15]', 'Relative binding affinity', 4);

Which value of Relative binding affinity has been reported for {FITC′-GABA}-[dF]RCF[dW]KTF[N(2-mercaptoethyl)Gly]-NH2 (disulfide 3-9) [Compound 2] in the records?
5

Which value of Relative binding affinity has been reported for XCFWXKTFX (FITC-GABA-DPhe-Cys*-Phe-Trp-DTrp-Lys-Thr-Phe-GlyS2*-NH2 (* = S-S bond; GlyS2 = N-thioethyl glycine; FITC-GABA on the N-terminal amine; C-terminal amide)) [Compound 1] in the records?
3

Which value of Relative binding affinity has been reported for XCFWXXTFX (FITC-GABA-DPhe-Cys*-Phe-Trp-DTrp-Orn-Thr-Phe-GlyS2*-NH2 (* = S-S bond; GlyS2 = N-thioethyl glycine; Orn = ornithine; C-terminal amide)) [Compound 3] in the records?
3.6

Which value of Relative binding affinity has been reported for {FITC′-GABA}-[dF]CRFF[dW]KTF[N(2-mercaptoethyl)Gly]-NH2 (disulfide 2-10) [Compound 8] in the records?
2.6

Source listed as patent US20170298113A1.
